All values here come from patent US20220290196A1.

test system: Tar14; assay: Tar14 in vitro halogenation assay with substrate analogues; format: biochemical, Saccharomonospora sp. CNQ-490; settings: NaCl 100 mM; substrate 0.25 mM; Tar14 5 μM; 30° C., 4 h
We label by threshold. Values of Enzyme assays, % conversion, Tar14, Cl^− strictly beneath 30% are TRUE. Values of 30% and up are FALSE.

Worked examples, 5 compounds total:
# input Please check: Enzyme assays, % conversion, Tar14, Cl^− for Cc1cccc2[nH]cc(C[C@H](N)C(=O)O)c12 [Compound 17, D/L-4-methyltryptophan] , strictly under 30% or not?
# output FALSE

# input Please check: Enzyme assays, % conversion, Tar14, Cl^− for N[C@@H](Cc1c[nH]c2cccc(Br)c12)C(=O)O [Compound 12, L-4-bromotryptophan] , strictly under 30% or not?
# output TRUE

# input Just wondering, is Enzyme assays, % conversion, Tar14, Cl^− of N[C@@H](Cc1c[nH]c2cccc(F)c12)C(=O)O [Compound 15, D/L-4-fluorotryptophan] below 30%?
# output TRUE

# input For Cc1ccc2[nH]cc(C[C@H](N)C(=O)O)c2c1 [Compound 18, D/L-5-methyltryptophan] , is the recorded Enzyme assays, % conversion, Tar14, Cl^− below the cut-off of 30%?
# output FALSE

# input Given the entry N[C@@H](Cc1c[nH]c2cc(F)ccc12)C(=O)O [Compound 16, D/L-6-fluorotryptophan] , would its reported Enzyme assays, % conversion, Tar14, Cl^− be below 30%?
# output TRUE

We next turn to a different compound, shown below.
# input Please determine if N[C@H](Cc1c[nH]c2ccccc12)C(=O)O [Compound 11, D-tryptophan] is below 30% in terms of Enzyme assays, % conversion, Tar14, Cl^−.
# output TRUE

---

system: Tar16; assay: Coupled Tar13/Tar16 assay (Tar16 substrate generated in situ by Tar13); format: biochemical, Saccharomonospora sp. CNQ-490; details: substrates generated in situ by Tar13; Tar16 10 μM; overnight at 30° C.
Parameter Enzyme assays, % conversion, Tar16: see the listing below.
The reply must contain the numeric value and, after it, the unit.

Answered examples (3):
Hey, Tar16 data for N[C@@H](Cc1c[nH]c2ccccc12)C(=O)O : Enzyme assays, % conversion, Tar16 came out at 100%

The observed Enzyme assays, % conversion, Tar16 for N[C@@H](Cc1c[nH]c2ccc(Br)cc12)C(=O)O when tested with Tar16 stands at 100%

Enzyme assays, % conversion, Tar16 on Tar16 for Cc1ccc2[nH]cc(C[C@H](N)C(=O)O)c2c1 is 70%

More entries:
Entry N[C@@H](Cc1c[nH]c2cc(Cl)ccc12)C(=O)O ; assay system Tar16; Enzyme assays, % conversion, Tar16 recorded at 100%

Lab note: compound N[C@@H](Cc1c[nH]c2ccc(Cl)cc12)C(=O)O tested on Tar16; recorded Enzyme assays, % conversion, Tar16 was 100%

Result for N[C@H](Cc1c[nH]c2ccccc12)C(=O)O , tested on Tar16, Enzyme assays, % conversion, Tar16: 40%

Simply: N[C@@H](Cc1c[nH]c2cc(Br)ccc12)C(=O)O , Tar16, Enzyme assays, % conversion, Tar16 = 100%

Reported Enzyme assays, % conversion, Tar16 (Tar16) for entry N[C@@H](Cc1c[nH]c2cc(F)ccc12)C(=O)O is 100%
